Reference source: ChEMBL document CHEMBL3085749

assay: Oral bioavailability in Sprague-Dawley rat at 5 mg/kg by LC-MS/MS analysis
Format: ADME, organism-based
test conditions: in vivo
endpoint: bioavailability (%)
Record the value in %, omitting the unit from your answer.

Exam item: Give bioavailability for the following compound: CC(=O)N1CCN(c2nccnc2Oc2ccc(C(=O)c3nc4ccccc4[nH]3)cc2)CC1
Marked response: 56

====

assay: AUC in Sprague-Dawley rat at 2 mg/kg, iv by LC-MS/MS analysis
Format: ADME, organism-based
Set-up: dose 2 mg/kg, route intravenous
test conditions: plasma
endpoint: AUC (µM·h)
Record the value in µM·h, omitting the unit from your answer.

> print(dat)
                               smiles.entry  endpoint  unit.text  endpoint.value
1  CC(=O)N1CCN(c2nccnc2Oc2ccc(C(=O)c3nc4ccccc4[nH]3)cc2)CC1       AUC       µM·h            62.1

Field: next molecule
Exam item: Give AUC for the following molecule: O=C(c1ccc(Oc2nccnc2N2CCC(O)CC2)cc1)c1nc2ccccc2[nH]1
Marked response: 4.5
